Target: human GYS1 (glycogen synthase) (Homo sapiens, UniProt P13807)
Sequence (P13807 1-737): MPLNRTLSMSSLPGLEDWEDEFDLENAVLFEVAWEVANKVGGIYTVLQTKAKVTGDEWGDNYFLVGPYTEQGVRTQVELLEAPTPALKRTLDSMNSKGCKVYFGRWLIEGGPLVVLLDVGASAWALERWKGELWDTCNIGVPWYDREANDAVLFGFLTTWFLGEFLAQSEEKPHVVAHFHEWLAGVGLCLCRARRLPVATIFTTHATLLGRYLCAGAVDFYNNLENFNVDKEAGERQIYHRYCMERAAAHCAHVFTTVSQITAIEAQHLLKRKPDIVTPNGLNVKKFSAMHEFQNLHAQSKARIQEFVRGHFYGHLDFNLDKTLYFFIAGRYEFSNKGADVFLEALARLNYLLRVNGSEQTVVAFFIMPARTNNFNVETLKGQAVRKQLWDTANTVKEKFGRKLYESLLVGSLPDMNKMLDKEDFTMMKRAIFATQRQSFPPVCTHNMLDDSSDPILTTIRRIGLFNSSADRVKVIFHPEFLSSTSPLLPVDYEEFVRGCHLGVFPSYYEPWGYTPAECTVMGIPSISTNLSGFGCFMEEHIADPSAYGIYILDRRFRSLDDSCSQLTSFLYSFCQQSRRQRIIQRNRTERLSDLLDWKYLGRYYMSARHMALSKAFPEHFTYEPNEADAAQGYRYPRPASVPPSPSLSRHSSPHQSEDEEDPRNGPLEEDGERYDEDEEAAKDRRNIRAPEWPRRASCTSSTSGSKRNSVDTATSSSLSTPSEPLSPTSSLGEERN
Assay: Measurement of glycogen synthase activity
Conditions: concentration causing 50% increase in relative activity; 100% = compound of Example 1 of WO/2011/058154 at 10 μM; 10 mM Glucose-6-phosphate; 37° C. for 25 minutes (Examples 1 to 61 and 67 to 82) or 20 minutes (Examples 62 to 66); absorbance at 340 nm

compound	testTarget	unitsSymbol	EC50
COCCN(CC(=O)O)C(=O)c1cccc(COc2ccc(-c3cc(F)c(F)cc3SC)cc2)c1	human GYS1 (glycogen synthase) (Homo sapiens, UniProt P13807)	nM	17
CC(C)(O)CCN(CC(=O)O)C(=O)c1cccc(COc2ccc(-c3cc(F)c(F)c4ccoc34)cc2)c1	human GYS1 (glycogen synthase) (Homo sapiens, UniProt P13807)	nM	7.3
O=C(O)[C@@H]1[C@H](O)CCN1C(=O)c1cccc(COc2ccc(-c3cc(F)c(F)c4ccoc34)cc2)c1	human GYS1 (glycogen synthase) (Homo sapiens, UniProt P13807)	nM	16
CO[C@H]1CCN(C(=O)c2cccc(COc3ccc(-c4cc(F)c(F)c5ccoc45)cc3)c2)[C@@H]1C(=O)O	human GYS1 (glycogen synthase) (Homo sapiens, UniProt P13807)	nM	20
CSc1cc(F)c(F)cc1-c1ccc(OCc2cccc(C(=O)N3C(C(N)=O)CC[C@H]3C(=O)O)c2)cc1 (single isomer, unassigned) [Example 58]	human GYS1 (glycogen synthase) (Homo sapiens, UniProt P13807)	nM	7.3
CSc1cc(F)c(F)cc1-c1ccc(OCc2cccc(C(=O)N(CC(=O)O)Cc3ccncn3)c2)cc1	human GYS1 (glycogen synthase) (Homo sapiens, UniProt P13807)	nM	7.9
NC(=O)CN(CC(=O)O)C(=O)c1cccc(COc2ccc(-c3cc(F)c(F)c4ccoc34)cc2)c1	human GYS1 (glycogen synthase) (Homo sapiens, UniProt P13807)	nM	13

meta.source: patent US20160046592A1
